All values here come from patent US20080293647A1.

For each of the compounds below, state its IC50.
System: RT112
Experiment: Inhibition of cell proliferation, RT112 human bladder cancer cells (CyQuant)
Format: cell-based
Conditions: 96-h culture, read-out: Bladder Cancer Cell Lines IC50 (μM) RT112
Protocol: After an additional 96-h culture, the medium was removed and the plates frozen at −80° C. Cell proliferation was evaluated using CyQuant cell proliferation assay kit from Molecular Probes (Eugene, Oreg.).
Give bare numbers, in µM.

Recorded results for 3 compounds are shown here.
>  <COMPOUND>
C=C1/C(=C\C=C2/CCC[C@]3(C)C(C4(C/C=C\C(O)(C(F)(F)F)C(F)(F)F)CC4)=CCC23)CC(O)C[C@@H]1F (stereo partly shown)

>  <IC50 (µM)>
21

$$$$
>  <COMPOUND>
C=C1/C(=C\C=C2/CCC[C@]3(C)C(C4(C/C=C/C(O)(C(F)(F)F)C(F)(F)F)CC4)=CCC23)CC(O)C[C@@H]1F (stereo partly shown)

>  <IC50 (µM)>
17

$$$$
>  <COMPOUND>
C=C1/C(=C\C=C2/CCC[C@]3(C)C([C@H](C)CCCC(C)(C)O)CC[C@@H]23)C[C@@H](O)C[C@@H]1O (stereo partly shown) [1,25-Dihydroxycholecalciferol]

>  <IC50 (µM)>
28.7

$$$$

Q: Tell me the measured IC50 of C=C1/C(=C\C=C2/CCC[C@]3(C)C(C4(CC#CC(O)(C(F)(F)F)C(F)(F)F)CC4)=CCC23)CC(O)C[C@@H]1F (stereo partly shown) , please.
A: 16.9
